METHOD SUMMARY: hydrodynamic micelle diameter (2 Rh) by photon correlation spectroscopy (PCS)
Type: physicochemical
ASSAY METRIC: 2 Rh (hydrodynamic micelle diameter) (nm)

| COMPOUND | UNIT TAG | 2 Rh (hydrodynamic micelle diameter) |
| --- | --- | --- |
| CC(C(=O)NCC(=O)N(CCOCCC(F)(F)C(F)(F)C(F)(F)C(F)(F)C(F)(F)C(F)(F)C(F)(F)C(F)(F)F)CC(O)CO)N1CCN(CC(=O)[O-])CCN(CC(=O)[O-])CCN(CC(=O)[O-])CC1.[Gd+3] (stereo not drawn) [metal complex V] | nm | 4.4 |

(a) CCN(CC(=O)NCC(O)CN1CCN(CC(=O)[O-])CCN(CC(=O)[O-])CCN(CC(=O)[O-])CC1)S(=O)(=O)C(F)(F)C(F)(F)C(F)(F)C(F)(F)C(F)(F)C(F)(F)C(F)(F)C(F)(F)F.[Gd+3] (stereo not drawn) [metal complex IV]
(b) CCN(CCCCCC(=O)NCC(O)CN1CCN(CC(=O)[O-])CCN(CC(=O)[O-])CCN(CC(=O)[O-])CC1)S(=O)(=O)C(F)(F)C(F)(F)C(F)(F)C(F)(F)C(F)(F)C(F)(F)C(F)(F)C(F)(F)F.[Gd+3] (stereo not drawn) [metal complex XII]
Inquiry: Hey, between a and b which has a smaller measured 2 Rh (hydrodynamic micelle diameter)? Selection: enter the item's label.
Reply text: b

---

METHOD SUMMARY: proton relaxivity in plasma (R^1), Minispec P 20
Type: physicochemical
DETAILS: 40° C., 0.47 tesla, bovine plasma
ASSAY METRIC: R^1 Plasma (relaxivity) (mmol⁻¹ s⁻¹)

(1) CCN(CCCCCC(=O)NCC(O)CN1CCN(CC(=O)[O-])CCN(CC(=O)[O-])CCN(CC(=O)[O-])CC1)S(=O)(=O)C(F)(F)C(F)(F)C(F)(F)C(F)(F)C(F)(F)C(F)(F)C(F)(F)C(F)(F)F.[Gd+3] (centres unmarked) [metal complex XII]
(2) CC(C(=O)NCC(=O)NCCOCCOCCOCCCNC(=O)COCCC(F)(F)C(F)(F)C(F)(F)C(F)(F)C(F)(F)C(F)(F)C(F)(F)C(F)(F)F)N1CCN(CC(=O)[O-])CCN(CC(=O)[O-])CCN(CC(=O)[O-])CC1.[Gd+3] (centres unmarked) [metal complex IX]
Inquiry: Between 1 and 2 , whose recorded R^1 Plasma (relaxivity) is greater? Selection: enter the item's label.
Reply text: 1

---

Tested on: primary tumor (VX2-tumor implanted i.m.)
METHOD SUMMARY: tumor visualization (MRT) after intravenous administration in VX2-tumor-bearing rabbits
Assay type: in vivo
DETAILS: 15 minutes p.i.; 200 μmol of Gd/kg i.v.
ASSAY METRIC: enhancement of the primary tumor (especially the periphery) (%)
Value expressed in %; do not type the unit.

Observe how each entry below is paired with its result.
| COMPOUND | UNIT TAG | TEST VALUE |
| --- | --- | --- |
| CC(C(=O)NCC(=O)NCC(=O)N1CCN(C(=O)CNC(=O)CNC(=O)C(C)N2CCN(CC(=O)[O-])CCN(CC(=O)[O-])CCN(CC(=O)[O-])CC2)CCN(C(=O)COCCC(F)(F)C(F)(F)C(F)(F)C(F)(F)C(F)(F)C(F)(F)C(F)(F)C(F)(F)F)CCN(C(=O)CNC(=O)CNC(=O)C(C)N2CCN(CC(=O)[O-])CCN(CC(=O)[O-])CCN(CC(=O)[O-])CC2)CC1)N1CCN(CC(=O)[O-])CCN(CC(=O)[O-])CCN(CC(=O)[O-])CC1.[Gd+3].[Gd+3].[Gd+3] (stereo not shown) [metal complex XIV] | % | 594 |
| COCCN(CCOCCC(F)(F)C(F)(F)C(F)(F)C(F)(F)C(F)(F)C(F)(F)C(F)(F)C(F)(F)F)C(=O)CNC(=O)C(C)N1CCN(CC(=O)[O-])CCN(CC(=O)[O-])CCN(CC(=O)[O-])CC1.[Gd+3] (stereo not shown) [metal complex X] | % | 277 |
| O=C([O-])CN1CCN(CC(=O)[O-])CCN(CC(O)CNC(=O)CCCC(=O)N2CCN(C(F)(F)C(F)(F)C(F)(F)C(F)(F)C(F)(F)C(F)(F)C(F)(F)C(F)(F)F)CC2)CCN(CC(=O)[O-])CC1.[Gd+3] (stereo not shown) [metal complex III] | % | 232 |

Turning now to a further compound:
Inquiry: Recall and state the measured enhancement of the primary tumor (especially the periphery) for CC(C(=O)NCC(=O)N(CCOCCC(F)(F)C(F)(F)C(F)(F)C(F)(F)C(F)(F)C(F)(F)C(F)(F)C(F)(F)F)CC(O)CO)N1CCN(CC(=O)[O-])CCN(CC(=O)[O-])CCN(CC(=O)[O-])CC1.[Gd+3] (stereo not shown) [metal complex V] .
Reply text: 350

---

METHOD SUMMARY: critical micelle formation concentration (CMC) by tensiometry
Assay type: physicochemical
ASSAY METRIC: CMC (critical micelle formation concentration) (mol/L)

| MOLECULE | TEST VALUE |
| --- | --- |
| CC(C(=O)NCC(=O)N(CCOCCC(F)(F)C(F)(F)C(F)(F)C(F)(F)C(F)(F)C(F)(F)C(F)(F)C(F)(F)F)CC(O)CO)N1CCN(CC(=O)[O-])CCN(CC(=O)[O-])CCN(CC(=O)[O-])CC1.[Gd+3] (stereo not shown) [metal complex V] | 3.9e-06 |
| CC(C(=O)NCC(=O)NCCCC[C@H](NC(=O)CO[C@H]1O[C@H](CO)[C@@H](O)[C@H](O)[C@@H]1O)C(=O)N1CCN(S(=O)(=O)C(F)(F)C(F)(F)C(F)(F)C(F)(F)C(F)(F)C(F)(F)C(F)(F)C(F)(F)F)CC1)N1CCN(CC(=O)[O-])CCN(CC(=O)[O-])CCN(CC(=O)[O-])CC1.[Gd+3] (stereo partly shown) [metal complex XV] | 2.5e-06 |

(A) COCCN(CCOCCC(F)(F)C(F)(F)C(F)(F)C(F)(F)C(F)(F)C(F)(F)C(F)(F)C(F)(F)F)C(=O)CNC(=O)C(C)N1CCN(CC(=O)[O-])CCN(CC(=O)[O-])CCN(CC(=O)[O-])CC1.[Gd+3] (stereo not shown) [metal complex X]
(B) COCCOCCOCCOCCOCCN(CCOCCC(F)(F)C(F)(F)C(F)(F)C(F)(F)C(F)(F)C(F)(F)C(F)(F)C(F)(F)F)C(=O)CNC(=O)C(C)N1CCN(CC(=O)[O-])CCN(CC(=O)[O-])CCN(CC(=O)[O-])CC1.[Gd+3] (stereo not shown) [metal complex VII]
Inquiry: Hey, between A and B which has a smaller measured CMC (critical micelle formation concentration)? Selection: enter the item's label.
Reply text: A

---

METHOD SUMMARY: critical micelle formation concentration (CMC) by tensiometry
Assay type: physicochemical
Protocol: In aqueous systems, these amphiphilic molecules show the properties that are characteristic of standard surfactants (such as, e.g., sodium dodecylsulfate, SDS). They thus reduce the surface tension of water. By tensiometry, the so-called CMC (critical micelle formation concentration in mol/l) can be determined. In this respect, the surface tension is determined based on the concentration of the substance to be measured. […]
ASSAY METRIC: CMC (critical micelle formation concentration) (mol/L)

| COMPOUND | TEST VALUE |
| --- | --- |
| CC(C(=O)NCC(=O)NCCCC[C@H](NC(=O)CNC(=O)C(C)N1CCN(CC(=O)[O-])CCN(CC(=O)[O-])CCN(CC(=O)[O-])CC1)C(=O)N1CCN(S(=O)(=O)C(F)(F)C(F)(F)C(F)(F)C(F)(F)C(F)(F)C(F)(F)C(F)(F)C(F)(F)F)CC1)N1CCN(CC(=O)[O-])CCN(CC(=O)[O-])CCN(CC(=O)[O-])CC1.[Gd+3].[Gd+3] (some centres unmarked) [metal complex XVI] | 3.9e-05 |
| O=C([O-])CN1CCN(CC(=O)[O-])CCN(CC(O)COCCC(F)(F)C(F)(F)C(F)(F)C(F)(F)C(F)(F)C(F)(F)C(F)(F)C(F)(F)F)CCN(CC(=O)[O-])CC1.[Gd+3] (centres unmarked) [metal complex VI] | 1.44e-05 |
| O=C([O-])CN1CCN(CC(=O)[O-])CCN(CC(O)CNC(=O)COCCC(F)(F)C(F)(F)C(F)(F)C(F)(F)C(F)(F)C(F)(F)C(F)(F)C(F)(F)C(F)(F)C(F)(F)F)CCN(CC(=O)[O-])CC1.[Gd+3] (centres unmarked) [metal complex XI] | 2.88e-06 |
| O=C([O-])CN1CCN(CC(=O)[O-])CCN(CC(O)CNC(=O)CCCC(=O)N2CCN(C(F)(F)C(F)(F)C(F)(F)C(F)(F)C(F)(F)C(F)(F)C(F)(F)C(F)(F)F)CC2)CCN(CC(=O)[O-])CC1.[Gd+3] (centres unmarked) [metal complex III] | 7.06e-06 |
| CCN(CCCCCC(=O)NCC(O)CN1CCN(CC(=O)[O-])CCN(CC(=O)[O-])CCN(CC(=O)[O-])CC1)S(=O)(=O)C(F)(F)C(F)(F)C(F)(F)C(F)(F)C(F)(F)C(F)(F)C(F)(F)C(F)(F)F.[Gd+3] (centres unmarked) [metal complex XII] | 1.07e-05 |

(A) O=C([O-])CN1CCN(CC(=O)[O-])CCN(CC(O)CNC(=O)COCCC(F)(F)C(F)(F)C(F)(F)C(F)(F)C(F)(F)C(F)(F)C(F)(F)C(F)(F)F)CCN(CC(=O)[O-])CC1.[Gd+3] (centres unmarked) [metal complex II]
(B) CCN(CC(=O)NCC(O)CN1CCN(CC(=O)[O-])CCN(CC(=O)[O-])CCN(CC(=O)[O-])CC1)S(=O)(=O)C(F)(F)C(F)(F)C(F)(F)C(F)(F)C(F)(F)C(F)(F)C(F)(F)C(F)(F)F.[Gd+3] (centres unmarked) [metal complex IV]
Inquiry: Between A and B , whose recorded CMC (critical micelle formation concentration) is greater? Selection: enter the item's label.
Reply text: A
